Biological target: S100B (Homo sapiens, UniProt P04271)
Construct: made in house; host or cells: Escherichia coli BL21(DE3)
Sequence (P04271 1-92): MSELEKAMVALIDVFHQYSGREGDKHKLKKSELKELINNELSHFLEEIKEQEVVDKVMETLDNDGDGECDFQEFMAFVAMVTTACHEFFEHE
Test: Pull-down assay with immobilized protein and LSM libraries
Assay type: binding
Conditions: H12 library; 1:1 binding assumed; read-out: Surface mapping KD (apparent)
MEASURE: Kd (µM)

{"columns": ["SMILES DATA", "UNIT TAG", "Kd"],
 "data": [
  ["CC(C)C[C@@H](CC(=O)N[C@H]1CCC[C@@H]1C(=O)N[C@H]1CCC[C@@H]1C(=O)N[C@@H](CCCNC(=N)N)CC(=O)N[C@H]1CCC[C@@H]1C(=O)N[C@H]1CCC[C@@H]1C(N)=O)NC(=O)[C@H]1CCC[C@@H]1NC(=O)[C@H]1CCC[C@@H]1N", "µM", 29],
  ["CSCC[C@@H](CC(=O)N[C@H]1CCC[C@@H]1C(=O)N[C@H]1CCC[C@@H]1C(=O)N[C@@H](CO)CC(=O)N[C@H]1CCC[C@@H]1C(=O)N[C@H]1CCC[C@@H]1C(N)=O)NC(=O)[C@H]1CCC[C@@H]1NC(=O)[C@H]1CCC[C@@H]1N", "µM", 215]
]}

I = CSCC[C@@H](CC(=O)N[C@H]1CCC[C@@H]1C(=O)N[C@H]1CCC[C@@H]1C(N)=O)NC(=O)[C@H]1CCC[C@@H]1NC(=O)[C@H]1CCC[C@@H]1NC(=O)C[C@H](CCCNC(=N)N)NC(=O)[C@H]1CCC[C@@H]1NC(=O)[C@H]1CCC[C@@H]1N
II = CC[C@H](C)[C@@H](CC(=O)N[C@H]1CCC[C@@H]1C(=O)N[C@H]1CCC[C@@H]1C(=O)N[C@H](CC(=O)N[C@H]1CCC[C@@H]1C(=O)N[C@H]1CCC[C@@H]1C(N)=O)CC(C)C)NC(=O)[C@H]1CCC[C@@H]1NC(=O)[C@H]1CCC[C@@H]1N
Compare I and II and name the one whose reported Kd is smaller. Let me know the label of the one you choose. II
